Test: qHTS for Inhibitors of human tyrosyl-DNA phosphodiesterase 1 (TDP1): qHTS in cells in absence of CPT; also: nearly all actives have a fitted effect of over 55% in size
Conditions: DT40 Tdp1-/- hTDP1 cells, no CPT, ATP luminescence, 48 h
Out of some 420,000 compounds screened, about 64,000 (15%) were called active. Inconclusive results (about 27%) are left out. Calls follow the shape of the dose curve; as a rule, active = well fitted inhibition curve with a large enough effect; inconclusive = small, poorly fitted or top-dose-only effect; inactive = flat fitted curve, though single readings scatter. The list is a sample of the results.
Select the correct class. Options are active, inactive and nothing else.

>  <molecule>
Cc1ccc(C)c(N2CCN(C(c3ccccc3)c3nnc(-c4ccccc4)o3)CC2)c1 (configuration not stated)

>  <classification>
active

$$$$
>  <molecule>
Cc1ccc(C)c(N2CCN(Cc3nnc(-c4ccccc4)o3)CC2)c1

>  <classification>
inactive

$$$$
>  <molecule>
Cc1ccc(C(=O)COC(=O)CCCC(=O)NC2CCCCC2)cc1[N+](=O)[O-]

>  <classification>
inactive

$$$$
>  <molecule>
CC(C)c1cc(C(=O)O)on1

>  <classification>
inactive

$$$$
>  <molecule>
CC(O)c1nc2ccccc2n1Cc1ccc([N+](=O)[O-])cc1 (configuration not stated)

>  <classification>
inactive

$$$$

Prompt: I would be grateful if you could indicate the recorded call for CC(C)C[C@@H](CO)N1CCN(Cc2ccc(O)cc2)CCC1=O .
Completion: inactive

Prompt: I would be grateful if you could indicate the recorded call for NC(=O)CSc1c[nH]c2ccccc12 .
Completion: inactive

Prompt: I would be grateful if you could indicate the recorded call for COc1cc(OC)c(NC(=O)c2nc(-c3ccncc3)no2)cc1Cl .
Completion: inactive

Prompt: I would be grateful if you could indicate the recorded call for COc1ccc(C(=O)NNc2cc(C)nc(NNC(=O)c3ccc(OC)cc3)n2)cc1 .
Completion: inactive

Prompt: I would be grateful if you could indicate the recorded call for CCC(C)CN1CCC(CO)(Cc2ccccc2Cl)CC1 (configuration not stated) .
Completion: inactive

Prompt: I would be grateful if you could indicate the recorded call for CCOC(=O)c1[nH]cnc1C(=O)NC1CCCCC1 .
Completion: inactive

Prompt: I would be grateful if you could indicate the recorded call for CC1(C)CC(=O)C(C=NCCC2=CCCCC2)=C(O)C1 .
Completion: inactive

Prompt: I would be grateful if you could indicate the recorded call for Cc1cc(Oc2ccccc2)nc(N2CCOCC2)n1 .
Completion: inactive

Prompt: I would be grateful if you could indicate the recorded call for CCOC(=O)C1CCN(C(c2ccc(F)cc2)c2sc3nc(-c4ccco4)nn3c2O)CC1 (configuration not stated) .
Completion: inactive

Prompt: I would be grateful if you could indicate the recorded call for Cc1ccc(Nc2nc3ccccc3nc2-n2nc(C)cc2C)c(Cl)c1 .
Completion: inactive

Prompt: I would be grateful if you could indicate the recorded call for CC(C)CC(CO)N1CCN(C(=O)c2ccc(Cl)cc2Cl)CCC1=O (configuration not stated) .
Completion: inactive

Prompt: I would be grateful if you could indicate the recorded call for CCc1ccc(N(CC(=O)Nc2sc3c(c2C(=O)OC)CCCC3)S(C)(=O)=O)cc1 .
Completion: active

Prompt: I would be grateful if you could indicate the recorded call for O=c1cnc2cnc(Nc3ccccc3)nc2n1Cc1ccc(F)cc1 .
Completion: inactive

Prompt: I would be grateful if you could indicate the recorded call for O=C(N/N=C/c1cccc(O)c1)c1cc2c(ccc3ccccc32)o1 .
Completion: inactive

Prompt: I would be grateful if you could indicate the recorded call for CC1(C)C=C2[C@H]3CC[C@@H]4[C@@]5(C)CCC(=O)C(C)(C)[C@@H]5CC[C@@]4(C)[C@]3(C)CC[C@@]2(C(=O)O)CC1 .
Completion: active

Prompt: I would be grateful if you could indicate the recorded call for CCOC(=O)N/N=C1\CC(C)S(=O)(=O)c2ccc(Cl)cc21 (configuration not stated) .
Completion: inactive

Prompt: I would be grateful if you could indicate the recorded call for COC(=O)COc1ccc(C2NC(=O)NC(C)=C2C(=O)NCc2ccccc2)cc1OC (configuration not stated) .
Completion: inactive

Prompt: I would be grateful if you could indicate the recorded call for Cc1cccc(N(C(=O)c2ccc(CN3CCOCC3)o2)C(C(=O)NC2CCCCC2)c2ccc(F)cc2)c1 (configuration not stated) .
Completion: inactive

Prompt: I would be grateful if you could indicate the recorded call for c1ccc(-c2csc(N3CCc4ccccc4C3)n2)cc1 .
Completion: inactive

Prompt: I would be grateful if you could indicate the recorded call for Cc1cccc(Nc2cc(C)nc(-n3nc(C)cc3C)n2)c1 .
Completion: active

Prompt: I would be grateful if you could indicate the recorded call for COc1ccc(C(=O)O)cc1S(=O)(=O)NCc1cccnc1 .
Completion: inactive

Cited source for all entries: PubChem BioAssay AID686978
